Ref: paper PMC12284294

Molecular target: T1, Formyl peptide receptor 2 (human, UniProt P25090 1-351)
T1 chain: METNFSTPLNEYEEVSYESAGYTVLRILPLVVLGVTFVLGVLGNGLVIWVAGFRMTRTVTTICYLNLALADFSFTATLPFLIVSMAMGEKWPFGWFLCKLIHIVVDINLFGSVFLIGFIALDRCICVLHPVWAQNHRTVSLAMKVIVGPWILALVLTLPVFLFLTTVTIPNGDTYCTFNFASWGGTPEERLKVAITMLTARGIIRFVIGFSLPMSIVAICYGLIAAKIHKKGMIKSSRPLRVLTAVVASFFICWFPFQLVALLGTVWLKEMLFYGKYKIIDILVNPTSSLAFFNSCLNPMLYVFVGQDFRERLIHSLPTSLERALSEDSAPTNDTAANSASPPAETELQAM
Ends that are not written are not given here.
Property: pKd
Numbers only, as −log10 of the molar value.

// each binder listed below needs its pKd
1. EQYIKWPWYVWL (also: fluorescently labeled) [fluorescently labeled SARS-CoV MPR peptide CV3]
2. ETYIKWPWWVWL (also: fluorescently labeled) [fluorescently labeled HCoV-229E MPR peptide CV1]

Result:
6.47
6.54
